TARGET_OR_SYSTEM: T1, human programmed cell death protein 1 (hPD-1) C93S (aa 24-167) (Homo sapiens, UniProt Q15116, C93S)
T1 construct: made as a fusion with a TEV site and human Fc; the Fc was cut off with TEV protease; source: Expi293F, purified (Protein A, TEV cleavage of Fc, SEC; monomer fractions); not shown: Fc (human), C-terminal, cleaved
T1 sequence (Q15116 24-167 C93S): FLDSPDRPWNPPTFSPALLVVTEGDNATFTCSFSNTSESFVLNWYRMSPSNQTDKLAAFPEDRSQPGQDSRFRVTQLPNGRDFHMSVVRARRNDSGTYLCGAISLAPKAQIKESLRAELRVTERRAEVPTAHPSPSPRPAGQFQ
ASSAY_COMMENT: SPR; Carterra LSA; Fab from the ammonium sulfate precipitate of the culture supernatant immobilised on a NiHC200M chip; hPD-1 (1-1024 nM) or mPD-1-Fc (4-1024 nM) as analyte, fourfold dilution series, no regeneration; HBS-EP pH 7.4, 25 °C; medians over the spots of a construct, KD = koff/kon
CONDITION: one partner purified
Let's look at some binders and their measured koff.

BINDER: toripalimab Fab L.V30Y (Fab, V domains shown, as the heavy chain of Sm3; light chain of Sm3 with this change; numbers count from the chain's first residue; source: Brevibacillus, culture supernatant (ammonium sulfate precipitate); not shown: 6xHis, C-terminal, kept; 6xHN, C-terminal, kept) VH: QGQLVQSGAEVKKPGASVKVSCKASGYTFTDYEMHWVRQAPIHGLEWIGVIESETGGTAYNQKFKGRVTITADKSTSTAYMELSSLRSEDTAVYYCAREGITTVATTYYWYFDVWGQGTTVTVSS VL: DVVMTQSPLSLPVTLGQPASISCRSSQSIYHSNGNTYLEWYLQKPGQSPQLLIYKVSNRFSGVPDRFSGSGSGTDFTLKISRVEAEDVGVYYCFQGSHVPLTFGQGTKLEIK
RESULT: 1.6e-05 s⁻¹
--
BINDER: toripalimab Fab H.A105Y (Fab, V domains shown, heavy chain of Sm3 with this change; numbers count from the chain's first residue; as the light chain of Sm3; source: Brevibacillus, culture supernatant (ammonium sulfate precipitate); not shown: 6xHis, C-terminal, kept; 6xHN, C-terminal, kept) VH: QGQLVQSGAEVKKPGASVKVSCKASGYTFTDYEMHWVRQAPIHGLEWIGVIESETGGTAYNQKFKGRVTITADKSTSTAYMELSSLRSEDTAVYYCAREGITTVYTTYYWYFDVWGQGTTVTVSS VL: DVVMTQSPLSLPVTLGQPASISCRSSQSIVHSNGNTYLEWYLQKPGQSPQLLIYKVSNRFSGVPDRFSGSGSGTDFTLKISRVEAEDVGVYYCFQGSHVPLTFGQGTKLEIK
RESULT: < 1e-05 s⁻¹
--
BINDER: toripalimab Fab H.G66Y (Fab, V domains shown, heavy chain of Sm3 with this change; numbers count from the chain's first residue; as the light chain of Sm3; source: Brevibacillus, culture supernatant (ammonium sulfate precipitate); not shown: 6xHis, C-terminal, kept; 6xHN, C-terminal, kept) VH: QGQLVQSGAEVKKPGASVKVSCKASGYTFTDYEMHWVRQAPIHGLEWIGVIESETGGTAYNQKFKYRVTITADKSTSTAYMELSSLRSEDTAVYYCAREGITTVATTYYWYFDVWGQGTTVTVSS VL: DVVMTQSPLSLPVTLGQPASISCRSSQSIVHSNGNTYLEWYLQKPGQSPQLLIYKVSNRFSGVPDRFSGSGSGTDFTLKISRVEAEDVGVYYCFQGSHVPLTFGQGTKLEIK
RESULT: < 1e-05 s⁻¹
--
BINDER: toripalimab Fab H.H35Y (Fab, V domains shown, heavy chain of Sm3 with this change; numbers count from the chain's first residue; as the light chain of Sm3; source: Brevibacillus, culture supernatant (ammonium sulfate precipitate); not shown: 6xHis, C-terminal, kept; 6xHN, C-terminal, kept) VH: QGQLVQSGAEVKKPGASVKVSCKASGYTFTDYEMYWVRQAPIHGLEWIGVIESETGGTAYNQKFKGRVTITADKSTSTAYMELSSLRSEDTAVYYCAREGITTVATTYYWYFDVWGQGTTVTVSS VL: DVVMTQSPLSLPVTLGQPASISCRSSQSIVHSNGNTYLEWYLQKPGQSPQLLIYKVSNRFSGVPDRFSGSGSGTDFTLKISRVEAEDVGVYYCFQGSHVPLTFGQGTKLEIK
RESULT: 0.00276 s⁻¹

## Task Need koff of toripalimab Fab H.Y60A (Fab, V domains shown, heavy chain of Sm3 with this change; numbers count from the chain's first residue; as the light chain of Sm3; source: Brevibacillus, culture supernatant (ammonium sulfate precipitate); not shown: 6xHis, C-terminal, kept; 6xHN, C-terminal, kept) VH: QGQLVQSGAEVKKPGASVKVSCKASGYTFTDYEMHWVRQAPIHGLEWIGVIESETGGTAANQKFKGRVTITADKSTSTAYMELSSLRSEDTAVYYCAREGITTVATTYYWYFDVWGQGTTVTVSS VL: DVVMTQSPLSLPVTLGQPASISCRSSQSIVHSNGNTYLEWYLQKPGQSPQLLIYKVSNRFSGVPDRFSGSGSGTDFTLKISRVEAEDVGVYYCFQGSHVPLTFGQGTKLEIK , thanks.
## Result < 1e-05 s⁻¹
